# Assayed target: F protein of wild type RSV A/Long (respiratory syncytial virus strain …, UniProt P12568 26-574)
# Sequence (P12568 26-574): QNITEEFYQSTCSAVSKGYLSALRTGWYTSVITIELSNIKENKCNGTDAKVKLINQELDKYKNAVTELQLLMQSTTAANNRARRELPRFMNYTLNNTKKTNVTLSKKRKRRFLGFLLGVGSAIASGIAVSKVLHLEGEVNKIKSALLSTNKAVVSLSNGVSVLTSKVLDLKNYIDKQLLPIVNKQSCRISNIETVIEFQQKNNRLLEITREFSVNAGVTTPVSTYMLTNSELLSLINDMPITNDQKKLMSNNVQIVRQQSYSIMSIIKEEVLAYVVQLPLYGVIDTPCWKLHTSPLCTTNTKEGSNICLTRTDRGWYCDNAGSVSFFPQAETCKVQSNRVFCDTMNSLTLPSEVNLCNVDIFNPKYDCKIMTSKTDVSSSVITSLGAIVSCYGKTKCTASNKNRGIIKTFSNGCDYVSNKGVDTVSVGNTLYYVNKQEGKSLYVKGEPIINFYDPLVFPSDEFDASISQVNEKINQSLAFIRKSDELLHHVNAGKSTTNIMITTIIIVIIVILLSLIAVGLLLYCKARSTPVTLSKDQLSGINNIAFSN
# Procedure summary: cell-based or functional assay

Binder	Fold Difference (Curve IC50) / fold
A4B4 (Fab fragment) (Fab, V domains shown) VH: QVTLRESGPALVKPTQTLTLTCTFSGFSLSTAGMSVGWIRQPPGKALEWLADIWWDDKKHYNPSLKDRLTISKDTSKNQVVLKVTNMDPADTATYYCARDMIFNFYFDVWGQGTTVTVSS VL: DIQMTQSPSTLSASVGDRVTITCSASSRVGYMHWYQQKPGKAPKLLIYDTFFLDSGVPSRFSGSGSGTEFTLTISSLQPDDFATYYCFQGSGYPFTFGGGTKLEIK	11
A1e9 (Fab fragment) (Fab, V domains shown, Fab; also called *Ale9) VH: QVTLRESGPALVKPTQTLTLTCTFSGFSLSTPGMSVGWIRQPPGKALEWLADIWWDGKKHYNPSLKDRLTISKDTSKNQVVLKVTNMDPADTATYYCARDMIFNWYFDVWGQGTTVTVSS VL: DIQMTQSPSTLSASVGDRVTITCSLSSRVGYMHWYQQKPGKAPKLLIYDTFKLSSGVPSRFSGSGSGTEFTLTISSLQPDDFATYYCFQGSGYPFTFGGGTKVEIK	3
A13c4 (monoclonal antibody) (antibody, V domains shown, mAb with framework and constant regions of SYNAGIS) VH: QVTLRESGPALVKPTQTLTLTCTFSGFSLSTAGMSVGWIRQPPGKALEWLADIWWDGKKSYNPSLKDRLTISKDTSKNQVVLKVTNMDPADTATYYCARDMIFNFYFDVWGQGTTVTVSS VL: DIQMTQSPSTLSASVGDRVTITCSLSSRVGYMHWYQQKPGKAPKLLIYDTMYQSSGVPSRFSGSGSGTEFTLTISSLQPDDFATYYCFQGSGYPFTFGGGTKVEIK	12
P12f2 (Fab fragment) (Fab, V domains shown, Fab) VH: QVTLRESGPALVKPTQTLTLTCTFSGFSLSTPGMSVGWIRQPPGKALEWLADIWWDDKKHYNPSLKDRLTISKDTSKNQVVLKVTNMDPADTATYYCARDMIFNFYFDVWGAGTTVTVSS VL: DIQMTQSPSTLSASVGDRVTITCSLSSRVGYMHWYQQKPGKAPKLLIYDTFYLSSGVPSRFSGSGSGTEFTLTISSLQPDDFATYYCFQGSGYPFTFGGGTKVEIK	11
A8c7 (monoclonal antibody) (antibody, V domains shown, mAb with framework and constant regions of SYNAGIS) VH: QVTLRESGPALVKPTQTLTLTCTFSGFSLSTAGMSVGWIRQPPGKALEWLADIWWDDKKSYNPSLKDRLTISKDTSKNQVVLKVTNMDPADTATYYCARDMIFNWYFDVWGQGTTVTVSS VL: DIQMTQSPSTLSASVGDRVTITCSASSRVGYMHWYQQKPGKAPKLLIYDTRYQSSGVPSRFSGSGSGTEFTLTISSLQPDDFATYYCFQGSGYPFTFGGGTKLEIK	13
